Read-out: Vascular cell adhesion molecule 1 (VCAM1), VCAM1 (gene 7412)
protocol_text: BSK_4H_VCAM1: BioMAP Diversity Plus: 4H Assay for Vascular cell adhesion molecule 1 (VCAM1) Biomarker Activity (AID 2283033)
run_conditions: primary human endothelial cells (HUVEC); actives raise or lower the signal
Calls of active or inactive are those of the source. Rule for the calls: active = hit-call score of the fitted dose curve at least 0.9, where 1 is the maximum; inactive = score below 0.9.
quantity_name: AC50

{"columns": ["compound", "AC50"],
 "data": [
  ["CCC(C)OC(=O)N1CCCCC1CCO (configuration not stated)", "inactive"],
  ["CCSC(=O)N(CC(C)C)CC(C)C", "inactive"],
  ["Oc1ccc(C(c2ccc(O)cc2)C(Cl)(Cl)Cl)cc1", "26 µM (active)"],
  ["CCN(Cc1c(F)cccc1Cl)c1c([N+](=O)[O-])cc(C(F)(F)F)cc1[N+](=O)[O-]", "4.57 µM (active)"]
]}

Consider the compound CCCOC(=O)c1ccc(C(=O)OCCC)nc1 . State its measured AC50.
inactive

Consider the compound O=C(O)C1(C(=O)Nc2ccc(Cl)cc2Cl)CC1 . State its measured AC50.
inactive

Consider the compound COC(=O)c1ccccc1S(=O)(=O)NC(=O)Nc1nc(OC(F)F)cc(OC(F)F)n1 . State its measured AC50.
inactive
